STUDY_SYSTEM: Serine/threonine-protein kinase MRCK alpha (Homo sapiens);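 also: each inhibition figure is a mean value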
CONDITION_INFO: at 0.1 µM
RESULT_TYPE: inhibition (%)
Give just the numeric value; % need not be written.

What does the record list as inhibition for COc1cc2ncn(-c3cc(O[C@H](C)c4ccccc4Cl)c(C(N)=O)s3)c2cc1OC ?
1.89

Item Nc1ncnc2occ(-c3ccc(NC(=O)Nc4cccc(C(F)(F)F)c4)cc3)c12 has what recorded inhibition?
-3.03

Endpoint output: inhibition of COc1ccc(-c2coc3ncnc(N)c23)cc1 . Value?
0.52

Give its inhibition value. Item: CN1CCC(C(=O)Nc2n[nH]c3nnc(-c4ccccc4)cc23)CC1
0.2

Query (compound): COc1cc2ncn(-c3cc(OCc4ccccc4C(F)(F)F)c(C(N)=O)s3)c2cc1OC ; field requested: inhibition
-5.9

Look up inhibition: CCn1c(-c2nonc2N)nc2ccncc21
1.72

====

STUDY_SYSTEM: Serine/threonine-protein kinase B-raf (Homo sapiens);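 also: reported value is the mean percent inhibition of BRAF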
CONDITION_INFO: at 1 µM
RESULT_TYPE: inhibition (%)
Response body: numeric value in %, unit text excluded.

Consider the compound shown here: COC(=O)Nc1nc2cc(Oc3ccc(NC(=O)Nc4cccc(C(=O)O)c4)cc3)ccc2[nH]1 What is its recorded inhibition?
-1.69

I would be grateful if you could share the reported inhibition for CCn1c(-c2nonc2N)nc2c(N3CCCC3)nccc21 .
4.02

# lookup: inhibition of CS(=O)(=O)CCNCc1ccc(-c2ccc3ncnc(Nc4ccc(OCc5cccc(F)c5)c(C(F)(F)F)c4)c3c2)o1
6.29

For the compound shown here, COc1cc2c(cc1Nc1nc(N3CCc4ccccc43)c3cc[nH]c3n1)N(C(=O)CN(C)C)CC2 , give the reported inhibition.
2.22

Give its inhibition value. Item: CNC(=O)c1cncc(/C=C/c2c(Cl)cccc2Cl)c1
10.5

Entry Nc1nc(-c2ccccn2)c(-c2ccc3ncccc3n2)s1 has what inhibition?
7.22

Give its inhibition value. Item: COc1cc(C=NNc2ncnc3c2cnn3-c2ccccc2)ccc1O
2.66

Could you share which inhibition value was measured for CS(=O)(=O)CCNCc1nc(-c2ccc3ncnc(Nc4ccc(F)c(Cl)c4)c3c2)cs1 ?
3.47

I am curious: what inhibition value has been reported for CS(=O)(=O)Nc1ccc(N/C=C2\C(=O)Nc3ccccc32)cc1 ?
-2.55

Value lookup for inhibition; key = CCCN1CCC=C(c2ccc(Nc3nc(Nc4ccccc4C(N)=O)c4cc[nH]c4n3)c(C)c2)C1
33.4

Field request: inhibition | item: CCn1c(-c2nonc2N)nc2c(C#CC(C)(C)O)nc(OC[C@@H](N)c3ccccc3)cc21
3.45

Please report the recorded inhibition for COc1ccc(-c2ccncc2)cc1C(N)=O .
8.48

Field request: inhibition | item: Cc1nn(C)c2cc(N(C)c3ccnc(Nc4cccc(S(N)(=O)=O)c4)n3)ccc12
7.71

Would you mind telling me what inhibition value was observed for CC1=C(C(=O)Nc2ccc3[nH]ncc3c2)C(c2ccc(F)cc2)NC(=O)N1 (configuration not stated) ?
5.71

Give the measured inhibition of NS(=O)(=O)c1cccc(-c2ccc3c(NC(=O)C4CC4)n[nH]c3c2)c1 .
-2.14

# get_value(readout='inhibition', item= Cc1cc(O)cc(C)c1/C=C/c1cncc(-c2nn[nH]n2)c1 )
10.1

Which inhibition is reported for this compound? COc1ccccc1Nc1ncc(-c2ccccc2)o1
7.19

What value of inhibition has been recorded for this entry: N#Cc1c(NC(=O)c2cccc3ccccc23)sc2c1CCCC2
5.63

Any idea what inhibition was measured for COc1cc2ncn(-c3cc(OCc4ccccc4C(F)(F)F)c(C(N)=O)s3)c2cc1OC ?
4.85

Param item = CCn1c(-c2nonc2N)nc2cncc(C(=O)N3CC[C@H](N)C3)c21 ; retrieve measured inhibition.
7.03

Please report the recorded inhibition for NC(=O)c1cccc(Nc2nccc(Nc3cccc4[nH]ncc34)n2)c1 .
4.38

Value lookup for inhibition; key = COc1ccc(COc2ccc(Cc3cnc(N)nc3N)cc2OC)cc1
-0.42

Fill blank: measured inhibition of the compound CS(=O)(=O)CCNCc1ccc(-c2ccc3ncnc(Nc4ccc(OCc5ccccc5)c(Cl)c4)c3c2)o1 is ____.
1.24

Record request: inhibition value, item Cc1nnc(-c2ccc(C)c(-c3ccc(C(=O)Nc4cccc(C#N)c4)cc3)c2)o1
3.97

Which inhibition value belongs to CN(C)c1cc2c(Nc3ccc4nc(Cc5ccccc5)[nH]c4c3)ncnc2cn1 ?
7.35

Param item = COC(=O)Nc1nc2cc(Oc3cccc(NC(=O)Nc4cc(C(F)(F)F)ccc4F)c3)ccc2[nH]1 ; retrieve measured inhibition.
4.25

Requested read-out: inhibition. Entry: COc1ccc(-c2nn3ncccc3c2-c2ccnc(Nc3ccc(Cl)c(C(F)(F)F)c3)n2)cc1
4.03

====

STUDY_SYSTEM: Serine/threonine-protein kinase 10 (Homo sapiens)
CONDITION_INFO: at 1 µM
Could you please report measured inhibition for the items listed next?
Your answer is read as %, so omit the unit and give the number.

For Serine/threonine-protein kinase 10 (Homo sapiens), provide inhibition of O=C1NC(=O)C(N2CCc3ccccc32)=C1c1ccc(Cl)cc1 please.
8.68

inhibition of COc1cc2c(cc1Nc1nc(N3CCc4ccccc43)c3cc[nH]c3n1)N(C(=O)CN(C)C)CC2 on Serine/threonine-protein kinase 10 (Homo sapiens)?
1.24

Could you share what inhibition was measured for CCn1c(-c2nonc2N)nc2c(C#CC(C)(C)O)nc(OC[C@@H](N)c3ccccc3)cc21 , tested on Serine/threonine-protein kinase 10 (Homo sapiens)?
7.62

What measured inhibition is associated with COC(=O)Nc1nc2cc(Oc3cccc(NC(=O)Nc4cc(C(F)(F)F)ccc4F)c3)ccc2[nH]1 on Serine/threonine-protein kinase 10 (Homo sapiens)?
12.5

Give Serine/threonine-protein kinase 10 (Homo sapiens) inhibition for Nc1nc(-c2ccccn2)c(-c2ccc3ncccc3n2)s1
5.82

Record O=C(Nc1n[nH]c2nc(-c3ccco3)c(Br)cc12)C1CC1 : what is its inhibition with Serine/threonine-protein kinase 10 (Homo sapiens)?
11.3

What is its inhibition for Serine/threonine-protein kinase 10 (Homo sapiens)? Entry: COc1ccc(-c2ccncc2)cc1C(N)=O
12.9

Can you look up inhibition on Serine/threonine-protein kinase 10 (Homo sapiens) for CS(=O)(=O)Nc1ccc(N/C=C2\C(=O)Nc3ccccc32)cc1 ?
0.71

What value of inhibition on Serine/threonine-protein kinase 10 (Homo sapiens) does CCCN1CCC=C(c2ccc(Nc3nc(Nc4ccccc4C(N)=O)c4cc[nH]c4n3)c(C)c2)C1 have?
14.9

inhibition of Nc1ncnc2occ(-c3ccc(NC(=O)Nc4cccc(C(F)(F)F)c4)cc3)c12 on Serine/threonine-protein kinase 10 (Homo sapiens)?
67.9

// fetch Serine/threonine-protein kinase 10 (Homo sapiens) inhibition for COc1cc(C=NNc2ncnc3c2cnn3-c2ccccc2)ccc1O
26.1

Recall the recorded inhibition for Cc1nnc(-c2ccc(C)c(-c3ccc(C(=O)Nc4cccc(C#N)c4)cc3)c2)o1 with Serine/threonine-protein kinase 10 (Homo sapiens) and state it.
5.45

Report inhibition for COc1ccccc1Nc1ncc(-c2ccccc2)o1 tested on Serine/threonine-protein kinase 10 (Homo sapiens).
8.47

Form field - read-out: inhibition; system: Serine/threonine-protein kinase 10 (Homo sapiens); submitted item: COC(=O)Nc1nc2cc(Oc3ccc(NC(=O)Nc4cccc(C(=O)O)c4)cc3)ccc2[nH]1
7.1

So what inhibition did CS(=O)(=O)CCNCc1nc(-c2ccc3ncnc(Nc4ccc(F)c(Cl)c4)c3c2)cs1 get with Serine/threonine-protein kinase 10 (Homo sapiens)?
27.7

Can you look up inhibition on Serine/threonine-protein kinase 10 (Homo sapiens) for CC(=O)Nc1cccc(C#Cc2cncnc2Nc2ccc(OCc3cccc(F)c3)c(Cl)c2)n1 ?
14.4

What value of inhibition on Serine/threonine-protein kinase 10 (Homo sapiens) does COc1cc2ncn(-c3cc(O[C@@H](C)c4ccccc4Cl)c(C(N)=O)s3)c2cc1OC have?
79.5

Recorded inhibition for CS(=O)(=O)CCNCc1ccc(-c2ccc3ncnc(Nc4ccc(OCc5ccccc5)c(Cl)c4)c3c2)o1 with Serine/threonine-protein kinase 10 (Homo sapiens), please?
8.82

Item NC(=O)c1cccc(Nc2nccc(Nc3cccc4[nH]ncc34)n2)c1 with Serine/threonine-protein kinase 10 (Homo sapiens) - inhibition?
31.9

Provide the documented inhibition with Serine/threonine-protein kinase 10 (Homo sapiens) as the system for COc1ccc2cc(-c3c(-c4ccncc4)nc(-c4ccc([S+](C)[O-])cc4)n3C)ccc2c1 (stereo unspecified)
78.4

Find the measured inhibition: item Cc1nn(C)c2cc(N(C)c3ccnc(Nc4cccc(S(N)(=O)=O)c4)n3)ccc12 , target or system Serine/threonine-protein kinase 10 (Homo sapiens).
51.4

Under Serine/threonine-protein kinase 10 (Homo sapiens): inhibition value of O=C1NC(=O)C(c2ccc(Cl)cc2)=C1Nc1ccc(Cl)c(C(=O)O)c1 ?
-1.03

Requested read-out inhibition, target or system Serine/threonine-protein kinase 10 (Homo sapiens), entry CCn1c(-c2nonc2N)nc2ccncc21
4.14

Give inhibition (Serine/threonine-protein kinase 10 (Homo sapiens)) of the following molecule: CS(=O)(=O)CCNCc1ccc(-c2ccc3ncnc(Nc4ccc(OCc5cccc(F)c5)c(C(F)(F)F)c4)c3c2)o1
7.45

// map c1cnn2ncc(-c3ccnc(Nc4ccc5c(c4)OCCO5)n3)c2c1 to recorded inhibition (system: Serine/threonine-protein kinase 10 (Homo sapiens));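 also: reported value is the mean percent inhibition of LOK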
23.8

What inhibition appears in the records for this molecule with Serine/threonine-protein kinase 10 (Homo sapiens)? CCn1c(-c2nonc2N)nc2cncc(C(=O)N3CC[C@H](N)C3)c21
12

Measured values drawn from ChEMBL document CHEMBL1961873 for this set.
